# measurement target: Carbonic anhydrase 1 (Homo sapiens, UniProt P00915)
# Sequence (P00915 whole entry): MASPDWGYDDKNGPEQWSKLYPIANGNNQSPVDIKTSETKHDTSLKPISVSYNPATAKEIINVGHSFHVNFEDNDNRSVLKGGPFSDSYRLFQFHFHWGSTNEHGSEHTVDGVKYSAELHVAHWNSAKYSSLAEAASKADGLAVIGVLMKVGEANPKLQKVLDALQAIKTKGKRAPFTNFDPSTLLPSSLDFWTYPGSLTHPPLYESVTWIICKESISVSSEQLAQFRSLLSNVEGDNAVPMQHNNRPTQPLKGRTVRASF
# test method notes: Binding affinity to human recombinant carbonic anhydrase 1 by thermal shift assay
pKd: −log10 of the molar value.
Would you please tag the item Satisfied when its pKd is 7 or above, and Not satisfied when it is below?

Decide: is the reported value of pKd for `NS(=O)(=O)c1ccc(CNc2nc[nH]c(=O)c2[N+](=O)[O-])cc1` equal to or greater than 7?
Not satisfied

Decide: is the reported value of pKd for `CSc1nc(Cl)c(C#N)c(Nc2ccc(S(N)(=O)=O)cc2)n1` equal to or greater than 7?
Not satisfied

Decide: is the reported value of pKd for `CSc1nc(Cl)c(C=O)c(NCc2ccc(S(N)(=O)=O)cc2)n1` equal to or greater than 7?
Satisfied

Decide: is the reported value of pKd for `COc1ncnc(NCc2ccc(S(N)(=O)=O)cc2)c1[N+](=O)[O-]` equal to or greater than 7?
Satisfied

Decide: is the reported value of pKd for `NS(=O)(=O)c1ccc(CCNc2ncnc(NCc3ccccc3)c2[N+](=O)[O-])cc1` equal to or greater than 7?
Not satisfied

Decide: is the reported value of pKd for `CSc1nc(NCc2ccccc2)c(C#N)c(Nc2ccc(S(N)(=O)=O)cc2)n1` equal to or greater than 7?
Not satisfied

Decide: is the reported value of pKd for `NS(=O)(=O)c1ccc(CNc2ncnc(NCc3ccccc3)c2[N+](=O)[O-])cc1` equal to or greater than 7?
Satisfied

Decide: is the reported value of pKd for NS(=O)(=O)C(F)(F)F [TRIFLUOROMETHANESULFONAMIDE] equal to or greater than 7?
Satisfied

Decide: is the reported value of pKd for `CSc1nc(Cl)c(C#N)c(NCCc2ccc(S(N)(=O)=O)cc2)n1` equal to or greater than 7?
Not satisfied

Decide: is the reported value of pKd for `CSc1nc(Cl)c(C=O)c(Nc2ccc(S(N)(=O)=O)cc2)n1` equal to or greater than 7?
Not satisfied

---

# measurement target: Carbonic anhydrase 1 (Homo sapiens)
# test method notes: Binding affinity to human recombinant carbonic anhydrase 1 by isothermal titration calorimetry assay
pKd: −log10 of the molar value.
Would you please tag the item satisfied when its pKd is 6 or above, and not satisfied when it is below?

Decide: is the reported value of pKd for `CSc1nc(Cl)c(C=O)c(Nc2ccc(S(N)(=O)=O)cc2)n1` equal to or greater than 6?
not satisfied

Decide: is the reported value of pKd for `COc1ncnc(NCc2ccc(S(N)(=O)=O)cc2)c1[N+](=O)[O-]` equal to or greater than 6?
satisfied

Decide: is the reported value of pKd for `NS(=O)(=O)c1ccc(Nc2ncnc(Cl)c2[N+](=O)[O-])cc1` equal to or greater than 6?
satisfied

Decide: is the reported value of pKd for `CSc1nc(Cl)c(C#N)c(Nc2ccc(S(N)(=O)=O)cc2)n1` equal to or greater than 6?
not satisfied

Decide: is the reported value of pKd for `COc1ncnc(NCCc2ccc(S(N)(=O)=O)cc2)c1[N+](=O)[O-]` equal to or greater than 6?
satisfied

Decide: is the reported value of pKd for `CSc1nc(Cl)c(C=O)c(NCc2ccc(S(N)(=O)=O)cc2)n1` equal to or greater than 6?
satisfied

Decide: is the reported value of pKd for `CSc1nc(Cl)c(C=O)c(NCCc2ccc(S(N)(=O)=O)cc2)n1` equal to or greater than 6?
satisfied
